Where these numbers come from: paper PMC5540273

System: TBK1
Conditions: concentration: 1 μM,replicates: in singlicate; n = 1;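 note: KINOMEscan kinase panel screen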
measuredMetric: %Inh (%)
Give just the numeric value; % need not be written.

Below are worked cases with known answers.
molecule=Cn1ccc2ncnc(Oc3ccc(NC(=O)Nc4cccc(C(F)(F)F)c4)c(F)c3)c21 recordednumber=51
molecule=O=C(Nc1cccc(C(F)(F)F)c1)c1cccc(Oc2ccc3nccn3n2)c1 recordednumber=12
molecule="C[C@@H](Oc1cc(-n2cnc3ccc(-c4ccncc4)cc32)sc1C(N)=O)c1ccccc1Cl [GSK483724]" recordednumber=17

Lab note: next molecule to report on.
// query For the molecule `C[C@@H]1CCN(C(=O)N2CCCC2)C[C@@H]1N(C)c1ncnc2[nH]ccc12` , what %Inh is on record?
// result 64

* * *

Test system: PIK3C2G
Details: concentration: 1 μM,replicates: in singlicate; n = 1
Entries and their %Inh values follow.
Give me the value, and tack the unit on after it.

Below are worked cases with known answers.
compound="O=C(NCC1CC1)c1ccc(-c2cc(C(=O)NC3CC3)ccc2F)cc1 [GW810445]" result=0%
compound="COc1cccc(OC)c1C(=O)Nc1cccc(-c2nn3ccccc3c2-c2ccnc(Nc3cccc(F)c3)n2)c1 [GSK361065]" result=24%
compound=O=C1NCCc2[nH]c(-c3ccncc3)cc21 result=0%

// query For the compound Cc1nnc(-c2ccc3occ(-c4ccc(S(C)=O)cc4)c3n2)o1 (stereo not drawn) , what %Inh is on record?
// result 0%

// query For the compound Cc1ccn2nc(-c3ccc(F)cc3)c(-c3ccncc3)c2c1.Cl [GW457859] , what %Inh is on record?
// result 20%

// query For the compound CCN1CCN(CCCC(=O)Nc2n[nH]c3nc(-c4ccc(O)cc4)c(Br)cc23)CC1 [SB-731579] , what %Inh is on record?
// result 16%

// query For the compound FC(F)(F)c1cc(Br)cc(Nc2nccc(-c3cnn4ncccc34)n2)c1 [GW810578] , what %Inh is on record?
// result 25%

// query For the compound O=c1[nH]cc(-c2ccc(O)cc2)c2sc(-c3ccncc3)cc12 [GSK1033723] , what %Inh is on record?
// result 20%

// query For the compound `OCCn1cc(-c2cnc3nnn(Cc4ccc5ncccc5c4)c3n2)cn1` , what %Inh is on record?
// result 0%

* * *

Tested on: RSK4(Kin.Dom.1-N-terminal)
Construct: gene RPS6KA6
Details: concentration: 1 μM,replicates: in singlicate; n = 1
measuredMetric: %Inh (%)
Give just the numeric value; % need not be written.

// query For the compound NC(=O)Nc1sc(-c2ccc(F)cc2)cc1C(N)=O [GW789449] , what %Inh is on record?
// result 76

// query For the compound `O=C(Nc1ccc(Oc2ccc3nc(NC(=O)C4CC4)cn3n2)c(F)c1)c1cccn(-c2ccccc2)c1=O` , what %Inh is on record?
// result 0

// query For the compound `Cn1ccc2ncnc(Oc3ccc(NC(=O)Nc4cccc(C(F)(F)F)c4)c(F)c3)c21` , what %Inh is on record?
// result 0

// query For the compound `NC(=O)c1ccc(-c2cc3ncnc(SCC(=O)O)c3s2)cc1` , what %Inh is on record?
// result 0

// query For the compound CCNCC(Cc1ccccc1)NC(=O)c1cc(Br)c(-c2ccnc3[nH]ccc23)s1.Cl.Cl (stereo not shown) [GSK1383280] , what %Inh is on record?
// result 33

// query For the compound Cl.Cl.NC[C@H](CC1CCCCC1)NC(=O)c1ccc(-c2ccnc3[nH]ccc23)s1 [GSK1581428] , what %Inh is on record?
// result 84

// query For the compound Cl.Nc1n[nH]c2cc(-c3ccccn3)ccc12 [GSK2189892] , what %Inh is on record?
// result 3

// query For the compound `CN(c1ccccc1CNc1nc(Nc2ccc3c(c2)CC(=O)N3)ncc1C(F)(F)F)S(C)(=O)=O` , what %Inh is on record?
// result 67

// query For the compound `Cc1ccc(C(=O)Nc2ccc(Oc3ccc4nc(NC(=O)C5CC5)cn4c3)c(F)c2)c(=O)n1-c1ccccc1` , what %Inh is on record?
// result 0

// query For the compound CN1CCN(CCCNc2nccc(-c3c(-c4ccc(F)cc4)nn4cc(C(N)=O)ccc34)n2)CC1 [GW622475] , what %Inh is on record?
// result 0

// query For the compound CSc1nccc(-c2c(-c3ccc(F)cc3)ncn2CCCN2CCOCC2)n1.Cl [SB-217146] , what %Inh is on record?
// result 18

// query For the compound Cc1ccn2nc(-c3ccc(F)cc3)c(-c3ccncc3)c2c1.Cl [GW457859] , what %Inh is on record?
// result 0

// query For the compound `Cn1ccc2ncnc(Oc3ccc(NC(=O)Nc4cccc(C(F)(F)F)c4)c(Cl)c3)c21` , what %Inh is on record?
// result 0

* * *

Entries and their %Inh values follow.
Tested on: DMPK2
Construct: gene CDC42BPG
Details: concentration: 1 μM,replicates: in singlicate; n = 1
Give just the numeric value; % need not be written.

Below are worked cases with known answers.
compound=Cc1n[nH]c2cc(Nc3ccnc(Nc4cccc(CN5CCOCC5)c4)n3)ccc12 measuredmetric=%Inh recordednumber=0
compound=CC(=O)Nc1nc2cnc(Nc3cc(NC(=O)c4cccc(CC(C)(C)C#N)c4)ccc3C)nc2s1 measuredmetric=%Inh recordednumber=2
compound="Cc1nnc(-c2ccc3occ(-c4ccc(S(C)=O)cc4)c3n2)o1 (stereo not shown)" measuredmetric=%Inh recordednumber=0
compound=CC(=O)Nc1ccc(-c2cc3ncnc(SCC(=O)O)c3s2)cc1 measuredmetric=%Inh recordednumber=0
compound=CC(C)S(=O)(=O)N1CCN(Cc2ccc3c(c2)nc(NC(=O)c2ccsc2)n3C[C@H](O)c2ccccc2)CC1 measuredmetric=%Inh recordednumber=0
compound=Nc1nccc(-c2ccc3c(N)n[nH]c3c2)n1 measuredmetric=%Inh recordednumber=2
compound=CN1CCN(CCNc2nc3cc(Oc4ccc(NC(=O)Nc5cc(C(F)(F)F)ccc5F)cc4)ccc3[nH]2)CC1.Cl.Cl measuredmetric=%Inh recordednumber=10
compound=CS(=O)(=O)c1cccc(CNc2nc(Nc3ccc4c(c3)[C@@H]3C[C@@H]4CNC3=O)ncc2C(F)(F)F)c1 measuredmetric=%Inh recordednumber=0

// query For the compound `COC(=O)Nc1nc2cc(Oc3ccc(NC(=O)Nc4cc(C(F)(F)F)ccc4Cl)cc3)ccc2[nH]1.Cl` , what %Inh is on record?
// result 0

// query For the compound `COc1cccc(OC)c1C(=O)Nc1cccc(-c2nn3ccccc3c2-c2ccnc(Nc3cccc(F)c3)n2)c1` , what %Inh is on record?
// result 84

// query For the compound `COc1cc2c(Nc3ccc(NC(=O)c4ccccc4)cc3)ncnc2cc1OCCCN1CCOCC1` , what %Inh is on record?
// result 0

// query For the compound `C[C@@H]1CNc2c(sc3ccc4nc(-c5ccncc5)ccc4c23)C(=O)N1` , what %Inh is on record?
// result 0

// query For the compound `COC(=O)c1cccc(NC(=O)NC2CCN(c3ccnc(NCc4ccc(F)cc4)n3)CC2)c1` , what %Inh is on record?
// result 12

// query For the compound `Cl.Cl.NC[C@H](CC1CCCCC1)NC(=O)c1ccc(-c2ccnc3[nH]ccc23)s1` , what %Inh is on record?
// result 100

* * *

System: RIPK2
Settings: concentration: 1 μM,replicates: in singlicate; n = 1
measuredMetric: %Inh (%)
Give just the numeric value; % need not be written.

Below are worked cases with known answers.
compound=COc1cccc(OC)c1C(=O)Nc1cccc(-c2nn3ccccc3c2-c2ccnc(Nc3cccc(F)c3)n2)c1 recordednumber=38
compound="CC(C(=O)NC1CCN(c2ccnc(Nc3ccc(F)cc3)n2)C1)c1ccc(Cl)cc1 (stereo not drawn)" recordednumber=0

// query For the compound `O=C(NOCC1CC1)c1cc(Br)c(F)c(F)c1Nc1ccc(I)cc1Cl` , what %Inh is on record?
// result 0

// query For the compound Cc1nnc(-c2ccc3occ(-c4ccc(S(C)=O)cc4)c3n2)o1 (stereo not drawn) , what %Inh is on record?
// result 0

// query For the compound `CC(C)c1nc(-c2cccc(NS(=O)(=O)c3ccccc3)c2)c(-c2ccnc(Nc3ccc4c(c3)CN(C)CC4)n2)s1` , what %Inh is on record?
// result 98.7

// query For the compound `Cn1ccc2ncnc(Oc3ccc(NC(=O)Nc4ccnc(C(F)(F)F)c4)c(Cl)c3)c21` , what %Inh is on record?
// result 0

// query For the compound `Cn1ccc2ncnc(Oc3ccc(NC(=O)Nc4cncc(C(F)(F)F)c4)c(Cl)c3)c21` , what %Inh is on record?
// result 9

// query For the compound CS(=O)c1ccc(-c2coc3ccc(-c4n[nH]c(=O)o4)cc23)cc1 (stereo not drawn) , what %Inh is on record?
// result 0

// query For the compound `CN(c1ccccc1CNc1nc(Nc2ccc3c(c2)CC(=O)N3)ncc1C(F)(F)F)S(C)(=O)=O` , what %Inh is on record?
// result 0
